Origin of the recorded values: ChEMBL document CHEMBL1155267

System: Mus musculus
Test: Antidepressant activity in Swiss albino mouse at 5 mg/kg, ip after 60 mins by photoactometer method
Assay type: functional
Details: route intraperitoneal
endpoint: Activity (%)

>>> value_observed("Nc1nnc2n(-c3ccc(Cl)cc3)c(=O)c3c4c(sc3n12)CCCC4")
88.78
>>> value_observed("CCc1nnc2n(-c3ccc(Cl)cc3)c(=O)c3c4c(sc3n12)CCCC4")
83.92
>>> value_observed("CN1C(=O)CN=C(c2ccccc2)c2cc(Cl)ccc21")
89.32
>>> value_observed("CCCc1nnc2n(-c3ccc(Cl)cc3)c(=O)c3c4c(sc3n12)CCCC4")
90.4
>>> value_observed("O=c1c2c3c(sc2n2c(S)nnc2n1-c1ccc(Cl)cc1)CCCC3")
90
>>> value_observed("Cc1nnc2n(-c3ccc(Cl)cc3)c(=O)c3c4c(sc3n12)CCCC4")
82.65
